test: Clearance after intravenous dose in rat; conditions: in vivo, CL
READOUT TYPE: clearance (mL/min/kg)

MOLECULE	READOUT TYPE	VALUE UNIT	VALUE
O=C(O)C1CCCN(C(=O)/C=C/c2ccc(Sc3ccc4c(c3)OCCO4)c(C(F)(F)F)c2)C1 (stereo unspecified)	clearance	mL/min/kg	4.83

* * *

target: Intercellular adhesion molecule (ICAM-1), Integrin alpha-L/beta-2 (Homo sapiens, UniProt P05107+P20701); test: Ability to antagonise the Leukocyte function-associated Antigen-1/ Intracellular Adhesion molecule-1 interaction (LFA-1/ICAM-1)
Sequence (P20701 whole entry): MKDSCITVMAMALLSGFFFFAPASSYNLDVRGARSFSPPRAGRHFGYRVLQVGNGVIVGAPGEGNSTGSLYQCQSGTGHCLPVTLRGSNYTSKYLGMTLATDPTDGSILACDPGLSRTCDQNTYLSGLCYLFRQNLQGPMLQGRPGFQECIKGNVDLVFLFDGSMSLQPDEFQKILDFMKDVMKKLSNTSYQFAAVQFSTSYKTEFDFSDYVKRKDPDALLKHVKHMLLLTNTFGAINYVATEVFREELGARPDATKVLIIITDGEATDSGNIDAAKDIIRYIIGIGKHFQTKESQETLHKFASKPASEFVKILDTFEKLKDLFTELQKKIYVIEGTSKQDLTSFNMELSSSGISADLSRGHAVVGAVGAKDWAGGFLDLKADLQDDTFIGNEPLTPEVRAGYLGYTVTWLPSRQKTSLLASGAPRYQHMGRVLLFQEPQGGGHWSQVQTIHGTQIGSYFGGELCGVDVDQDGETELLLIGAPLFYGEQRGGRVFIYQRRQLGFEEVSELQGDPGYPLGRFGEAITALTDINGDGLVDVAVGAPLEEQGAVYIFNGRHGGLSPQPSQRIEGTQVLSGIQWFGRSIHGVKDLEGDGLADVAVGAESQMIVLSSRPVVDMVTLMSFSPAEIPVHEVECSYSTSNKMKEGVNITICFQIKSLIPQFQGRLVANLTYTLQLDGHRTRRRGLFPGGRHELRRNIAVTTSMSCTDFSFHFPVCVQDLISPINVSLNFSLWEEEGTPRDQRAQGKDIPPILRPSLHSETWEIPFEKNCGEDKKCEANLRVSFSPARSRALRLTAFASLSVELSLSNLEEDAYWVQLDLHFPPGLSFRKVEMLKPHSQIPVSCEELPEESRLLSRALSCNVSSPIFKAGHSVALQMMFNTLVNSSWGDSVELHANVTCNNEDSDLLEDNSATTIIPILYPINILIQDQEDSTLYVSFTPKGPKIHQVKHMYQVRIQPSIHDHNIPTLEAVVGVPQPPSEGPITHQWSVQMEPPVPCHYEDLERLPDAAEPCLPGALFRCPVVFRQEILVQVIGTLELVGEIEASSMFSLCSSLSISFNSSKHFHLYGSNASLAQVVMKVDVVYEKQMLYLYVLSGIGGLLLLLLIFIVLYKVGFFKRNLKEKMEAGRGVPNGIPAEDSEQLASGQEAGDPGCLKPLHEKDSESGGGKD
Sequence (P05362 whole entry, further chain): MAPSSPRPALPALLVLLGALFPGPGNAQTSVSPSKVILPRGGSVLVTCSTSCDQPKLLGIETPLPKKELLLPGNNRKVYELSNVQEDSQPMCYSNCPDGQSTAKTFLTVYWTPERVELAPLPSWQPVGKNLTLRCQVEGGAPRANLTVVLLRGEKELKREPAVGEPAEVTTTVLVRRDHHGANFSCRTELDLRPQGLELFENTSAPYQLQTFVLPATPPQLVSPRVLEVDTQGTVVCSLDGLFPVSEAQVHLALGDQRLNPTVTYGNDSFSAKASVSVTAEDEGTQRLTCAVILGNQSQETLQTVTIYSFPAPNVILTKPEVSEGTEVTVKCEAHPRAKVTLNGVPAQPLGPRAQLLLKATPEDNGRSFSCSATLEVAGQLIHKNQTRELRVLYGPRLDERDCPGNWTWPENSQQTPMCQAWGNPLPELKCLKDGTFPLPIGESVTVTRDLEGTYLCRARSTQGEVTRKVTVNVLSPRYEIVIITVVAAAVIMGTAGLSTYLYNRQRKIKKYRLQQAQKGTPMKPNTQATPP
Sequence (P05107 whole entry): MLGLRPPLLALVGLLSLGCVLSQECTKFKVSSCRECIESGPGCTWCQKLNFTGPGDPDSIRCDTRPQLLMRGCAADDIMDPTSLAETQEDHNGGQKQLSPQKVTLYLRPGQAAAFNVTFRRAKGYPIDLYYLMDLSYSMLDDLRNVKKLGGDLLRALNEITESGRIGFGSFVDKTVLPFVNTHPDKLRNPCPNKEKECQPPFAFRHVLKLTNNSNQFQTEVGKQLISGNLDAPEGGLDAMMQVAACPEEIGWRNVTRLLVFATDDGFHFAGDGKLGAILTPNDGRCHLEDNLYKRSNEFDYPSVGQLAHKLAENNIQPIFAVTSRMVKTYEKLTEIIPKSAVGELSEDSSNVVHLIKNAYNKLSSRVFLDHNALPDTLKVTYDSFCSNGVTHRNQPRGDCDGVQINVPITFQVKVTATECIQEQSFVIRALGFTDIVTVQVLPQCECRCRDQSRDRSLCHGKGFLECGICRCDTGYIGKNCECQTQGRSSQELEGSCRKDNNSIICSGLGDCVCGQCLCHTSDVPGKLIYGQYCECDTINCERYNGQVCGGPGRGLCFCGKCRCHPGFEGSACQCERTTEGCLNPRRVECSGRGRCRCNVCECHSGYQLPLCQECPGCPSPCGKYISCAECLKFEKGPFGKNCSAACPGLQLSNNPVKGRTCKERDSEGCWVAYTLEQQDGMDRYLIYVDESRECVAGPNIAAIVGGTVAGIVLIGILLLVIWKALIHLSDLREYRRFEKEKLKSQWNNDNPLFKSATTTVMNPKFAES
Decide using IC50 alone. Strictly below 70 nM: T. Equal to or above 70 nM: F.

MOLECULE	LABEL CLASS
COC(=O)N1CCN(C(=O)/C=C/c2ccc(Sc3ccccc3C(C)C)c([N+](=O)[O-])c2)C(C(=O)O)C1 (configuration not stated)	F
CC(C)c1ccccc1Sc1ccc(/C=C/C(=O)N2CCOC(c3nnn[nH]3)C2)cc1[N+](=O)[O-] (configuration not stated)	T
COC(=O)C1CN(C(=O)/C=C/c2ccc(Sc3ccccc3C(C)C)c([N+](=O)[O-])c2)CCN1 (configuration not stated)	T
CC(C)c1ccccc1Sc1ccc(/C=C/C(=O)N2CCN(C(=O)c3ccncc3)CC2)cc1[N+](=O)[O-]	T
O=C(O)C1CCCN(C(=O)/C=C/c2ccc(Sc3ccc4c(c3)OCCO4)c(C(F)(F)F)c2)C1 (configuration not stated)	T
CC(C)c1ccccc1Sc1ccc(/C=C/C(=O)N2CCC(=O)CC2)cc1[N+](=O)[O-]	T
CC(C)c1ccccc1Sc1ccc(/C=C/C(=O)N2CCNC(CO)C2)cc1[N+](=O)[O-] (configuration not stated)	F

* * *

system: Rattus norvegicus; test: Clearance after intravenous dose in rat; conditions: in vivo

COMPOUND	TGT	VALUE UNIT	clearance
O=C(O)C1CCCN(C(=O)/C=C/c2ccc(Sc3ccc4c(c3)OCCO4)c(C(F)(F)F)c2)C1 (stereo unspecified)	Rattus norvegicus	L/h/kg	0.34
